test system: anthrax lethal toxin (LT); experiment: cells; assay type: cell-based, murine; details: Mus musculus, RAW264.7, read-out: IC50 (In uM)
endpointName: IC50 (µM)
# unit: µM | format: bare number

Solved entries:
molecule | studySystem | unitSymbol | observedValue
Cc1cccc(C)c1NC(=O)N/N=C/c1ccccc1F [Compound 13c] | anthrax lethal toxin (LT) | µM | 8.23
Cc1cccc(C)c1NC(=O)N/N=C/c1ccc(Br)cc1F | anthrax lethal toxin (LT) | µM | 0.4
Cc1cccc(C)c1NC(=O)N/N=C/c1ccc(C#N)cc1 [Compound 13s] | anthrax lethal toxin (LT) | µM | 2.45
Cc1cccc(C)c1NC(=O)N/N=C/c1ccc(N=[N+]=[N-])cc1 | anthrax lethal toxin (LT) | µM | 2.82
CCc1ccc(/C=N/NC(=O)Nc2c(C)cccc2C)cc1 [Compound 13l] | anthrax lethal toxin (LT) | µM | 3.02

Quick note, IC50 for `Cc1cccc(C)c1NC(=O)N(C)/N=C/c1ccc(Br)cc1` landed at 1.96

Quick note, IC50 for Cc1cccc(C)c1NC(=O)N/N=C/c1ccc(C(F)(F)F)cc1 [Compound 13r] landed at 2.59

Quick note, IC50 for Cc1cccc(C)c1NC(=S)N/N=C/c1ccc(Br)cc1 [Compound 19a] landed at 1.52

----------
test system: anthrax lethal toxin (LT); experiment: cells; assay type: cell-based, murine; settings: Mus musculus, RAW264.7, read-out: IC50 (In uM)
endpointName: log10 of IC50 (log10 of the value in µM)
A value of 2 here means IC50 of 100 in µM, since values are log10.

Solved entries:
molecule | log10 of IC50
Cc1cccc(/C=N/NC(=O)Nc2c(C)cccc2C)c1 [Compound 13j] | 1.13
Cc1ccc(/C=N/NC(=O)Nc2c(C)cccc2C)cc1F [Compound 13d] | 0.26
Cc1cccc(C)c1NC(=O)N/N=C/c1ccc(F)cc1F [Compound 13f] | 0.33

Proceed to the following item.
Quick note, log10 of IC50 for Cc1cccc(C)c1NC(=O)N/N=C/c1ccc(Br)cc1 [Compound 1] landed at 0.10

----------
tested on: anthrax lethal toxin (LT); test: cells; assay type: cell-based, murine; conditions: Mus musculus, RAW264.7, read-out: IC50 (In uM)
Sorting guide: entries reporting IC50 beneath 2 µM go in the Y pile, the rest go in the N pile.

Lookup: Bench note: check whether `Cc1cccc(C)c1NC(=O)NNCc1ccc(Br)cc1` shows IC50 below 2 µM
Found: N

----------
tested on: anthrax lethal toxin (LT); assay: cells; format: cell-based, murine; conditions: Mus musculus, RAW264.7, read-out: IC50 (In uM)
Sorting guide: entries reporting IC50 beneath 2 µM go in the Yes pile, the rest go in the No pile.

Below are worked cases with known answers.
compound | studySystem | group
Cc1cccc(C)c1NC(=O)N/N=C/c1ccc(Cl)cc1 [Compound 13a] | anthrax lethal toxin (LT) | Yes
Cc1cccc(C)c1NC(=O)N/N=C/c1ccc(F)cc1 [Compound 13e] | anthrax lethal toxin (LT) | No
C/C(=N\NC(=O)Nc1c(C)cccc1C)c1ccc(Br)cc1 | anthrax lethal toxin (LT) | No
Cc1cccc(C)c1NC(=O)N/N=C/c1ccc(Br)cc1Cl [Compound 13z] | anthrax lethal toxin (LT) | No
COc1cc(OC)c(/C=N/NC(=O)Nc2c(C)cccc2C)c(OC)c1 [Compound 13h] | anthrax lethal toxin (LT) | No

Lookup: Bench note: check whether `Cc1cc(C)c(NC(=O)N/N=C/c2ccc(Br)cc2)c(C)c1` shows IC50 below 2 µM
Found: No

Lookup: Bench note: check whether COc1ccc(/C=N/NC(=O)Nc2c(C)cccc2C)cc1 [Compound 13n] shows IC50 below 2 µM
Found: No

Lookup: Bench note: check whether Cc1cccc(C)c1NC(=O)N/N=C/c1c(F)cc(Br)cc1F [Compound 13y] shows IC50 below 2 µM
Found: No

Lookup: Bench note: check whether Cc1cccc(C)c1NC(=O)N/N=C/c1ccc(C(C)C)cc1 [Compound 13m] shows IC50 below 2 µM
Found: No

Lookup: Bench note: check whether C#Cc1ccc(/C=N/NC(=O)Nc2c(C)cccc2C)cc1 [Compound 13o] shows IC50 below 2 µM
Found: Yes

Lookup: Bench note: check whether Cc1cccc(C)c1NC(=O)N/N=C/c1ccc(NS(C)(=O)=O)cc1 [Compound 13p] shows IC50 below 2 µM
Found: No

Lookup: Bench note: check whether Cc1cccc(C)c1NC(=O)N/N=C/c1ccc(I)cc1 [Compound 13q] shows IC50 below 2 µM
Found: Yes

Lookup: Bench note: check whether Cc1ccccc1/C=N/NC(=O)Nc1c(C)cccc1C [Compound 13i] shows IC50 below 2 µM
Found: No

Lookup: Bench note: check whether `CCc1cccc(CC)c1NC(=O)N/N=C/c1ccc(Br)cc1` shows IC50 below 2 µM
Found: No

Lookup: Bench note: check whether COc1cccc(/C=N/NC(=O)Nc2c(C)cccc2C)c1OC [Compound 13g] shows IC50 below 2 µM
Found: No

Lookup: Bench note: check whether Cc1ccc(/C=N/NC(=O)Nc2c(C)cccc2C)cc1 [Compound 13k] shows IC50 below 2 µM
Found: No
